Values from PubChem BioAssay AID1259420

Kindly supply the reported max activity values for the records listed here.
ASSAY SUMMARY: compound activity on host-cell Toxoplasma growth – dose response (AID 1259420);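 also: host cells were HeLa; final incubation lasted 72 hours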
MEASUREMENT PARAMETERS: Toxoplasma gondii growth in host cells, no IFN-gamma; at 19.5 µM unless noted
The whole screen tested about 1,000 compounds, of which about 250 (25%) were called active. Roughly 31% stayed inconclusive and do not appear here. The list is a sample of the results. Entries with a potency or affinity are not part of this list.

Check out these entries, answers already filled in.
{"MOLECULE": "Cc1ccccc1-c1ccc(C2[C@@H]3CN(Cc4cncnc4)C[C@H]2N3)cc1 (stereo not given in full)", "READOUT LABEL": "max activity", "REPORTED": "-6.61% [at 10 µM] (inactive)"}
{"MOLECULE": "CC(C)n1cnc2c(NCC3CC3)nc(C3CCN(C(=O)c4cccc(F)c4F)CC3)cc21", "READOUT LABEL": "max activity", "REPORTED": "5.98% [at 1.2 µM] (inactive)"}
{"MOLECULE": "Cc1nc2ccccc2n1CC(O)Cn1c2ccccc2c2ccccc21 (stereo not given)", "READOUT LABEL": "max activity", "REPORTED": "-12.4% (inactive)"}
{"MOLECULE": "N#Cc1ccc(-c2ccc(C3[C@@H]4CN(C(=O)C5CCCCC5)C[C@H]3N4)cc2)cc1 (stereo not given in full)", "READOUT LABEL": "max activity", "REPORTED": "18.4% (inactive)"}
{"MOLECULE": "COCC1CN(C(=O)c2ccccc2F)Cc2cnn(CC3CC3)c21 (stereo not given)", "READOUT LABEL": "max activity", "REPORTED": "-15.3% [at 10 µM] (inactive)"}

Please give max activity, item by item, for the list that follows.
1. CNC(=O)NCC1CCC2(CCN(Cc3ccccc3)CC2)CO1 (stereo not given)
2. COc1ccccc1Cn1ncc2c1CCCC2NC(=O)c1cc(-c2cccs2)no1 (stereo not given)
3. Oc1[nH]c2ccccc2c1N=Nc1nc(Nc2ccccc2)nc(N2CCOCC2)n1
4. CCc1ccccc1-c1cccc(-n2cnnc2)c1

Output:
-9.71% [at 2.6 µM] (inactive)
11.7% [at 1.2 µM] (inactive)
-17.4% [at 5 µM] (inactive)
23.8% [at 10 µM] (inactive)

Fill in max activity for each of the 6 molecules listed.
1. Cc1nc(N2CCCC2)nc2c1CCN(C(=O)c1ccoc1C)CC2
2. CCN1Cc2c(C(=O)Nc3ccc(C)cc3)ncn2-c2ccccc2S1(=O)=O
3. COc1ccc(-c2ccc3c(c2)[C@@H]2[C@@H](CCN2C(=O)c2ccncc2)[C@H](CO)N3C)cc1
4. COc1cccc(-c2ccc3c(c2)[C@@H]2[C@@H](CCN2C(=O)c2ccccc2F)[C@@H](CO)N3C)c1
5. CCN1CC2(CCN(C(=O)COc3ccccc3)CC2)COc2ccccc2S1(=O)=O
6. CN(c1ccccc1)c1ccc2ccc(C(=O)N3CCCC3)cn12

Output:
-19.1% [at 10 µM] (inactive)
-12.3% [at 0.16 µM] (inactive)
-18.6% [at 5 µM] (inactive)
24% (inactive)
-3.38% [at 2.6 µM] (inactive)
-21% [at 0.16 µM] (inactive)

For each of the molecules below, state max activity.
1. Cc1ccccc1S(=O)(=O)N1CCCCN2[C@H](C1)[C@H](c1ccc(C#CCN(C)C)cc1)[C@@H]2CO
2. CCN1C(=O)CO[C@H]2CN(C(=O)c3cnc4ccccc4c3)C[C@@H]21
3. CCOCC1CC2(CCN(C(=O)COc3ccc(C)cc3)CC2)CO1 (stereo not given)
4. Cc1cccc(S(=O)(=O)N2C[C@H]3[C@@H](c4ccccc42)[C@@H](CO)N3C(=O)c2ccccc2)c1
5. CN(C)CCN1CCOCC2(CCCN(C(=O)c3ccc4cc[nH]c4c3)C2)C1 (stereo not given)

Output:
20.9% [at 10 µM] (inactive)
-7.5% [at 0.16 µM] (inactive)
-10.4% [at 5 µM] (inactive)
6.73% [at 0.16 µM] (inactive)
-5.04% [at 2.6 µM] (inactive)

----------
ASSAY SUMMARY: compound activity on host-cell Toxoplasma growth – dose response (AID 1259420);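 also: host cells were HeLa; final incubation lasted 72 hours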
MEASUREMENT PARAMETERS: Toxoplasma gondii growth in host cells, no IFN-gamma; at 19.5 µM unless noted
Out of some 1,000 compounds screened, about 250 (25%) were called active. Roughly 31% stayed inconclusive and do not appear here. The list is a sample of the results. Measured potencies and affinities stand elsewhere.
Consider the following compounds; for each one, report its max activity.

{"COMPOUND": "CN(C)C(=O)c1cccc(-c2ccc3c(c2)[C@H]2[C@H](CCN2C(=O)Cc2ccccc2)[C@@H](CO)N3)c1", "max activity": "-6.17% [at 10 µM] (inactive)"}
{"COMPOUND": "CC(=O)O[C@@H]1CC2C(C)(CC[C@H](O)C2(C)C)C2CC[C@]3(C)C(=CC(=O)O[C@H]3c3ccoc3)C21C (stereo partly drawn)", "max activity": "-5.91% [at 10 µM] (inactive)"}
{"COMPOUND": "O=C(Nc1cccc(F)c1)N1CCCCN2[C@H](C1)[C@H](c1ccc(C#Cc3cccnc3)cc1)[C@@H]2CO", "max activity": "-11.5% [at 21 µM] (inactive)"}
{"COMPOUND": "O=C(Nc1cccc(F)c1)N1CCCCN2[C@@H](CO)[C@@H](c3ccc(C#Cc4cccnc4)cc3)[C@@H]2C1", "max activity": "16.4% [at 0.6 µM] (inactive)"}
{"COMPOUND": "Cc1ccccc1-c1ccc([C@H]2[C@H](CO)N3CCCCN(S(=O)(=O)Cc4ccccc4)C[C@@H]23)cc1", "max activity": "27% (inactive)"}
{"COMPOUND": "O=C(C1CCC1)N1CC(=O)N2[C@H](CO)[C@H](c3ccc(Br)cc3)[C@H]2C1", "max activity": "-11.4% [at 10 µM] (inactive)"}
{"COMPOUND": "CC(C)C#Cc1ccc([C@@H]2[C@@H](CO)N3C(=O)CN(C(=O)NC4CCCC4)C[C@H]23)cc1", "max activity": "-5.34% (inactive)"}

Now look at this entry.
Input: Entry "O=C(Cc1cccnc1)N1CC(=O)N2[C@H](CO)[C@H](c3ccc(C#CC4CCCCC4)cc3)[C@H]2C1" : reported max activity = ?
Output: -8.11% [at 0.3 µM] (inactive)

----------
ASSAY SUMMARY: compound activity on host-cell Toxoplasma growth – dose response (AID 1259420);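 also: host cells were HeLa; final incubation lasted 72 hours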
MEASUREMENT PARAMETERS: Toxoplasma gondii growth in host cells, no IFN-gamma; at 19.5 µM unless noted
Hit rate of the full screen: of about 1,000 compounds, about 250 (25%) were called active. About 31% were inconclusive and are not listed. The list is a sample of the results. Results with a measured potency or affinity are listed apart.
READOUT LABEL: max activity

I have 2 molecules here; please give me max activity for each one.
1. COC1CCCC(C(=O)N2CCC3(CC2)C(=O)Nc2ccc(-c4ccc(C(C)=O)cc4)cc23)C1 (configuration not stated)
2. COc1ccccc1-c1ccc2c(c1)[C@H]1[C@H](CCN1S(=O)(=O)c1ccc(C)cc1)[C@@H](CO)N2

Output:
-15.4% [at 10 µM] (inactive)
21.4% (inactive)

Your task in this section: give max activity for each listed record.
1. C/C=C/c1ccc([C@H]2[C@H](CO)N3C(=O)CN(C(=O)NC4CCCCC4)C[C@@H]23)cc1
2. COc1ccc(Cc2nnc(NC(=O)CC(C)C)s2)cc1
3. O=C1CNC[C@@H]2[C@H](c3ccc(C#Cc4cccnc4)cc3)[C@@H](CO)N12
4. NC(N)=N/N=C/c1c(Cl)cccc1Cl
5. O=C(C1CCOCC1)N1CC(=O)N2[C@@H](CO)[C@H](c3ccc(/C=C/c4ccccc4)cc3)[C@@H]2C1
6. CC(C)n1c(C(=O)Nc2cccc(F)c2)nc2c1CCN(Cc1ccccc1)C2
7. CN(Cc1ccccn1)C(=O)C1=NOC2(CCN(S(=O)(=O)c3cccc(F)c3)C2)C1 (configuration not stated)
8. O=C(C[C@H]1CC[C@H]2[C@@H](COC[C@@H](O)CN2Cc2ccc(Oc3ccccc3)cc2)O1)N1CCN(c2ccccc2)CC1

Output:
1. -12.8% (inactive)
2. 16.7% [at 10 µM] (inactive)
3. -12.5% [at 0.16 µM] (inactive)
4. -13.6% [at 2.35 µM] (inactive)
5. 7.51% [at 5 µM] (inactive)
6. -15.6% [at 10 µM] (inactive)
7. -20.7% [at 10 µM] (inactive)
8. -8.77% [at 10 µM] (inactive)

Please state max activity for every molecule in the list that follows.
1. Cc1ccc(-c2cc(O)c3c(c2)CN(C(=O)CCN2CCCO2)CCO3)s1
2. CCC(=O)N1CC(=O)N2[C@@H](CO)[C@H](c3ccc(C#CCC(C)C)cc3)[C@@H]2C1
3. CC/C(=C(\c1ccccc1)c1ccc(OCCN(C)C)cc1)c1ccccc1
4. Cc1nc2c(cnn2-c2ccccc2)c(=O)n1-c1cccc2ccccc12
5. COCCO[C@H]1CCN(Cc2c(C)noc2C)[C@H]1Cc1ccccc1
6. O=S(=O)(c1cccc(F)c1)N1CC[C@@H]2[C@H]1c1cc(Br)ccc1N[C@@H]2CO

Output:
1. 12.4% [at 10 µM] (inactive)
2. -4.73% [at 2.6 µM] (inactive)
3. 22.1% (inactive)
4. -11.1% [at 10 µM] (inactive)
5. -15.1% [at 10 µM] (inactive)
6. 7.04% (inactive)

Batch of 6 molecules: report max activity for each.
1. O=C1NCC(=O)N2CCN(C(=O)Nc3cc(Cl)cc(Cl)c3)CC12 (configuration not stated)
2. N#C[C@@H]1[C@H](c2ccc(-c3cccc(F)c3)cc2)[C@@H](CO)N1C(=O)NC1CCCC1
3. O=C1CNC[C@@H]2[C@H](c3ccc(C#Cc4cccnc4)cc3)[C@H](CO)N12
4. NCCNC(=O)c1nc(-c2ccc(Br)o2)no1
5. C=CCN1CCC2(CC1)CC(NCc1ccc(C)s1)c1ccccc1O2 (configuration not stated)
6. CN1C(=O)c2cc(NC(=O)c3cccc(F)c3)ccc2OC[C@@H]2O[C@H](CC(=O)NCC3CCCCC3)CC[C@@H]21

Output:
17.6% [at 2.6 µM] (inactive)
22.7% (inactive)
16.3% (inactive)
7.54% [at 0.08 µM] (inactive)
5.11% [at 0.3 µM] (inactive)
-23.6% [at 10 µM] (inactive)

Required: max activity, one value per molecule below.
1. Cn1c([N+](=O)[O-])cnc1COC(N)=O
2. CC(C)CC#Cc1ccc([C@H]2[C@H]3CN(C(=O)Nc4cc(F)ccc4F)CC(=O)N3[C@H]2CO)cc1
3. CN1C(=O)c2cc(NC(=O)c3cccc(F)c3)ccc2OC[C@H]2O[C@@H](CC(=O)NCC3CCCCC3)CC[C@@H]21
4. COc1ccc(-c2ccc(C3[C@@H]4CN(C(=O)c5cnccn5)C[C@H]3N4)cc2)cc1 (some centres not stated)
5. Cc1ccc(Cl)cc1N(CC(=O)Nc1c(F)cccc1F)S(C)(=O)=O
6. CC(C)CNC(=O)C1Cn2ccnc2C2(CCN(c3ncccn3)CC2)O1 (configuration not stated)

Output:
-13.4% [at 0.6 µM] (inactive)
31.4% (inactive)
-18% [at 2.6 µM] (inactive)
19.9% (inactive)
8.21% [at 1.2 µM] (inactive)
-6.18% (inactive)

Respectfully, I request max activity for each entry included below.
1. COc1ccccc1S(=O)(=O)N1CC[C@H]2[C@H](CO)Nc3ccc(-c4ccc(C#N)cc4)cc3[C@H]21
2. O=C(Nc1ccc2c(c1)OCO2)N1C[C@@H]2N[C@H](C1)C2c1ccc(C=Cc2ccccc2)cc1 (some centres not stated)
3. Cc1ccccc1S(=O)(=O)N1CC[C@H]2[C@H](CO)Nc3ccc(-c4ccc(F)cc4)cc3[C@H]21
4. COCCC(=O)N1C[C@H](OCc2ccccn2)[C@@H]2COC[C@@H]21
5. COc1ccccc1C#Cc1ccc([C@H]2[C@@H](CO)N3CCCCN(C(=O)C4CCC4)C[C@H]23)cc1
6. CC(C)CC#Cc1ccc([C@H]2[C@@H](CO)N3C(=O)CN(C(=O)Nc4cc(F)ccc4F)C[C@H]23)cc1
7. O=C(C1CCOCC1)N1CC(=O)N2[C@@H](CO)[C@@H](c3ccc(C#CC4CCCCC4)cc3)[C@@H]2C1
8. O=C(C[C@H]1CC[C@H]2[C@@H](COC[C@H](O)CN2Cc2ccc(Oc3ccccc3)cc2)O1)N1CCN(c2ccccc2)CC1

Output:
19% [at 21 µM] (inactive)
38% [at 10 µM] (inactive)
-15.5% [at 5 µM] (inactive)
-16.7% [at 0.3 µM] (inactive)
11% [at 0.16 µM] (inactive)
17.1% (inactive)
14.6% (inactive)
19.6% (inactive)

Input: Name the reported max activity value associated with the molecule "CCCNC(=O)N1CC(=O)N2[C@H](C1)[C@@H](c1ccc(C#Cc3cccc(OC)c3)cc1)[C@@H]2CO"
Output: 8.44% [at 2.35 µM] (inactive)
